Origin of the recorded values: PubChem BioAssay (NCI)

We begin with a simple list: items and their reported growth.
System: HCT-116 colon
Test: NCI-60 one-dose screen, 48 h (100 = growth as untreated, 0 = no growth, -100 = all killed)
Details: 10 µM unless noted
The panel holds about 83,000 compounds, 20% with a hit somewhere; the sample as a whole holds those more often. Calls of active or inactive are those of the source. How the source made its calls: active means growth percent below 10; inactive means the rest.

Please review the following examples before continuing.
[
  {
    "molecule": "COc1ccc(C2CC(=O)Nc3c2c(C)nn3-c2nc3ccccc3[nH]2)cc1 (stereo unspecified)",
    "growth": "108% (inactive)"
  },
  {
    "molecule": "CCCCCCCCCCCCCCCCCCNC(=O)[C@H]1CSC(c2ccc(F)c(OC)c2)N1 (stereo partly specified)",
    "growth": "-85.5% (active)"
  },
  {
    "molecule": "O=C1NC(=O)C(CC(=O)n2c(-c3ccccc3)nc3ccccc32)C(=O)N1",
    "growth": "104% (inactive)"
  },
  {
    "molecule": "CCN(C(=O)CN1CCN(c2cc3c(cc2F)c(=O)c(C(=O)O)cn3C2CC2)CC1)c1nc(-c2ccc(OC)cc2)cs1",
    "growth": "40% (inactive)"
  },
  {
    "molecule": "CCCCOc1ccc(NC(=O)n2nc(NC(C)=O)c3cc(NC(C)=O)ccc32)cc1",
    "growth": "88.8% (inactive)"
  }
]

Dear colleague, please send me the reported growth for CC(=O)OCC1OC(OC2=C(CC=C(Cl)Cl)C(=O)c3ccccc3C2=O)C(OC(C)=O)C(OC(C)=O)C1OC(C)=O (stereo unspecified) when you can.
31.6% (inactive)

Dear colleague, please send me the reported growth for CSc1[nH]c2ncnc(N)c2c1C#N when you can.
102% (inactive)

Dear colleague, please send me the reported growth for CCCCCCCCCCCCCC1=NCCN1CCO when you can.
-36.2% (active)

Dear colleague, please send me the reported growth for COc1ccc(CN(c2ccc(C)cc2)C2OC(=O)c3ccccc32)cc1OC (stereo unspecified) when you can.
105% (inactive)

Dear colleague, please send me the reported growth for Nc1nc2ccc(-c3nc4ccc5[nH]ncc5c4c4c3CCC4)cc2s1 when you can.
15.9% (inactive)

Dear colleague, please send me the reported growth for CC/C=C\C[C@H](O)C/C=C1/C(=O)C=C[C@@H]1C/C=C\CCCC(=O)NC when you can.
-65% (active)

Dear colleague, please send me the reported growth for CCCCCCCCCCCCN1CCCC(C)C1 (stereo unspecified) when you can.
60.7% (inactive)

Dear colleague, please send me the reported growth for O=C(O)c1cn(C2CC2)c2cc(N3CCN(Cc4nc5c(cnn5-c5ccc([N+](=O)[O-])cc5)c(=O)[nH]4)CC3)c(F)cc2c1=O when you can.
99.8% (inactive)

Dear colleague, please send me the reported growth for CCC(c1ccccc1)C(CC)c1ccc(O)c(O)c1 (stereo unspecified) when you can.
88.2% (inactive)

Dear colleague, please send me the reported growth for Cc1ccc(-c2nc(/C=N/Nc3cc(C)nc4ccc(Br)cc34)c(C)o2)cc1 when you can.
-65.8% (active)

Dear colleague, please send me the reported growth for CC1=C(NCCN2CCCC2)C(=O)c2c(OCc3ccc(C(F)(F)F)cc3)cccc2C1=O when you can.
33.9% (inactive)

Dear colleague, please send me the reported growth for Brc1cccc(-c2cc(-c3ccc4c(c3)OCCO4)[nH]n2)c1 when you can.
21% [25 µM] (inactive)

Dear colleague, please send me the reported growth for Cn1c2ccccc2c2c3c(c4c5ccccc5[nH]c4c21)C(=O)N(N)C3=O when you can.
40.7% (inactive)

Dear colleague, please send me the reported growth for NS(=O)(=O)N(c1cc(C(F)(F)F)cc(C(F)(F)F)c1)C1CCN(Cc2ccc(F)cc2)CC1 when you can.
38% (inactive)

Dear colleague, please send me the reported growth for Oc1ccc(Nc2nccc(-c3ccc4ccccc4c3)n2)cc1 when you can.
23.2% (inactive)

Dear colleague, please send me the reported growth for CCOC(=O)/C=C/c1ccc(C(=O)OCC)[nH]1 when you can.
26.3% (inactive)
